Biological target: T1, mouse TrkB.hFc (mouse)
T1 construct: also called mTrkB.hFc; mTrkB-hFc
T1 sequence (chain, as listed by the source limits assumed): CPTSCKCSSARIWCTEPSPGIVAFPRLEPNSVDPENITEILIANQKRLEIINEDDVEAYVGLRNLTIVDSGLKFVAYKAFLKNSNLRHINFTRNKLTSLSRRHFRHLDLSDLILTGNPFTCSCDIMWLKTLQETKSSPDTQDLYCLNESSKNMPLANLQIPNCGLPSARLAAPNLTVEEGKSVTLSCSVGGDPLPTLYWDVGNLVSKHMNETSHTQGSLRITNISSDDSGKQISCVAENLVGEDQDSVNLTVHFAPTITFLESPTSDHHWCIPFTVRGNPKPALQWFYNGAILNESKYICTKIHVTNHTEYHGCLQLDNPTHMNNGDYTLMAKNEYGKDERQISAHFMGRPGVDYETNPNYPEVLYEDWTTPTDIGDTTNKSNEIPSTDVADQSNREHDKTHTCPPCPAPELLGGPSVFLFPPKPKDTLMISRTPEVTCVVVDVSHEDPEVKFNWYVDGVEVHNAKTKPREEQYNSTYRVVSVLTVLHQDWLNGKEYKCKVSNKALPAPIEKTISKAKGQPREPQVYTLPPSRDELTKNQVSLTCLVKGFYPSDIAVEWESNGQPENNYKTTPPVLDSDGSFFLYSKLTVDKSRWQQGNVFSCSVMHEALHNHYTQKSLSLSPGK
Test: BLI Octet, captured mTrkB.hFc, 300 nM mAb, no ligand
The entries below come with measured antibody Binding (nm) values attached.
Expressed in nm, but write only the number.

[
  {
    "binder": "M2aM14179N (antibody, mouse IgG2a, kappa, V domains shown, Anti-mouse TrkB antibody from hybridoma, mouse IgG2a Fc; also called surrogate anti-mouse TrkB antibody) VH: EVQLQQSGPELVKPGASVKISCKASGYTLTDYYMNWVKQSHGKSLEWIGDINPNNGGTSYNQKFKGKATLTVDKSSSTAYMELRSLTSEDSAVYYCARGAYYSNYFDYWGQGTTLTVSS VL: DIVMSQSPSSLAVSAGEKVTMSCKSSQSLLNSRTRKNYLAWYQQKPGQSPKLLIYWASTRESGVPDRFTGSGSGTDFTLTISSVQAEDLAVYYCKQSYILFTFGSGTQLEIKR",
    "numeric result": 0.42
  }
]

Specify reported antibody Binding (nm) for the binder shown: M2aM14178N (antibody, mouse IgG2a, V domains shown, Anti-mouse TrkB antibody from hybridoma, mouse IgG2a Fc; also called surrogate anti-mouse TrkB antibody) VH: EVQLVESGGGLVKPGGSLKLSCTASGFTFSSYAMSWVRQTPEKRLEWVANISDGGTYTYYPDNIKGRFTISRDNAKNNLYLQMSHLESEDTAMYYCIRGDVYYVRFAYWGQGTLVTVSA VL: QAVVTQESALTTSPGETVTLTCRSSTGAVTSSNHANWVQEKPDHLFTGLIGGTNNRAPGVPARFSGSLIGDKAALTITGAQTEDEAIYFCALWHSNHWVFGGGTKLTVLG
0.47

Specify reported antibody Binding (nm) for the binder shown: M2aM14173N (antibody, mouse IgG2a, kappa, V domains shown, Anti-mouse TrkB antibody from hybridoma, mouse IgG2a Fc; also called surrogate anti-mouse TrkB antibody) VH: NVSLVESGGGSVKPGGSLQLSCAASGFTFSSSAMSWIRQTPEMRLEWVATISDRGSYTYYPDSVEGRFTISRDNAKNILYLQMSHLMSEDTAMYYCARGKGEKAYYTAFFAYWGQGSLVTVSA VL: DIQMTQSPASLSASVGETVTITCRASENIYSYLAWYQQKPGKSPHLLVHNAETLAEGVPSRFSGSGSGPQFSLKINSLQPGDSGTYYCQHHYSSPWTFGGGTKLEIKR
0.42

Specify reported antibody Binding (nm) for the binder shown: H1M8037C (antibody, mouse IgG1, kappa, V domains shown, captured by anti-mFc in SPR; also called Comparator; comparator anti-TrkB monoclonal antibody) VH: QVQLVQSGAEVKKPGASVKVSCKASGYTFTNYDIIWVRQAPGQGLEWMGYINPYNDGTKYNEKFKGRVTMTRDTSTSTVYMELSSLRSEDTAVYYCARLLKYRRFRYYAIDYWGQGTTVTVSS VL: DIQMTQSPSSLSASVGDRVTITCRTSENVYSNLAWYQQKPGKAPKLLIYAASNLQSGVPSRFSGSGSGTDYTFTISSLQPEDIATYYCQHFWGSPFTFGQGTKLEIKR
0.42
